# TEST_TARGET: Ikaros (Homo sapiens, UniProt Q13422+Q96SW2)
# Sequence (Q13422 whole entry, one chain of several): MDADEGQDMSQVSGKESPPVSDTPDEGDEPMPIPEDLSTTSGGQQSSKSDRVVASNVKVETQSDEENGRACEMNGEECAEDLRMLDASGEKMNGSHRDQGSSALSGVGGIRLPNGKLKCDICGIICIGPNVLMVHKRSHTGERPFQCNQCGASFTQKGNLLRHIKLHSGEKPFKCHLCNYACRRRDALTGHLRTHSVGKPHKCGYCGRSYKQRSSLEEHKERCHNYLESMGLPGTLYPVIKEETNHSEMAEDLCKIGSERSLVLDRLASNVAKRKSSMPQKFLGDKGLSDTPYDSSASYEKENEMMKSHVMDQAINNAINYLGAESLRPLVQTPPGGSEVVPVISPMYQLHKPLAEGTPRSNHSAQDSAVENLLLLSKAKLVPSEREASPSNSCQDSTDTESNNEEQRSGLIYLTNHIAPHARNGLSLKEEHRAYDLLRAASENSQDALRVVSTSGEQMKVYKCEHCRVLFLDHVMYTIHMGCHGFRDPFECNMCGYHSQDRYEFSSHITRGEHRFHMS
# PROCEDURE_DETAILS: Helios Cellular Degradation Assay (Ikaros readout)
# Format: cell-based
# Design: endogenous in cells; host or cells: Jurkat
# CONDITION_LABEL: Jurkat cells, 72 h incubation, Ikaros-Alexa488 antibody staining, flow cytometry; read-out: Ikaros Jurkat IC50
OBSERVABLE: DC50

Tell me measured DC50 for O=C1CCC(N2Cc3cc(-c4ccc5c(n4)NCCCC5)ccc3C2=O)C(=O)N1 (stereo not shown) please.
≥ 10 µM

Provide measured DC50 value, entry: CCCc1cc(N)nc(-c2ccc3c(c2)CN(C2CCC(=O)NC2=O)C3=O)c1C#N (stereo not shown)
≥ 10 µM

Report DC50 for COc1cccc2ccc(-c3ccc4c(c3)CN(C3CCC(=O)NC3=O)C4=O)nc12 (stereo not shown)
> 20 µM

Please indicate DC50 recorded for COc1ccc(N)nc1-c1ccc2c(c1)CN(C1CCC(=O)NC1=O)C2=O (stereo not shown)
≥ 20 µM

* * *

# TEST_TARGET: Ikaros (Homo sapiens, UniProt Q13422+Q96SW2)
# PROCEDURE_DETAILS: Helios Cellular Degradation Assay (Ikaros readout)
# Assay type: cell-based
# Design: endogenous in cells; host or cells: Jurkat
# CONDITION_LABEL: Jurkat cells, 72 h incubation, Ikaros-Alexa488 antibody staining, flow cytometry; read-out: Ikaros Jurkat IC50
OBSERVABLE: DC50

Using the record for N#Cc1nc(-c2ccc3c(c2)CN([C@H]2CCC(=O)NC2=O)C3=O)cc2ccccc12 [Example 125] , state its measured DC50.
≥ 20 µM

Tell me measured DC50 for O=C1CCC(N2Cc3cc(-c4ccc5cc(O)ccc5n4)ccc3C2=O)C(=O)N1 (centres unmarked) [Example 40] please.
> 20 µM

Answer with the recorded DC50 of Nc1cncc(-c2ccc3c(c2)CN(C2CCC(=O)NC2=O)C3=O)n1 (centres unmarked) [Example 142] only.
≥ 20 µM

Name the recorded DC50 of the item CCNc1cc(C)cc(-c2ccc3c(c2)CN(C2CCC(=O)NC2=O)C3=O)n1 (centres unmarked) [Example 188] in your answer.
≥ 10 µM

Note DC50 for the compound shown: Nc1cc(CCl)cc(-c2ccc3c(c2)CN(C2CCC(=O)NC2=O)C3=O)n1 (centres unmarked) [Example 135]
≥ 10 µM

For O=C1CCC(N2Cc3cc(-c4cc5c(ccn5Cc5ccccc5)cn4)ccc3C2=O)C(=O)N1 (centres unmarked) [Example 158] , write its DC50.
≥ 10 µM

Quote DC50 reported for O=C1CCC(N2Cc3cc(-c4cc5c(cn4)OCCN5)ccc3C2=O)C(=O)N1 (centres unmarked) [Example 87] please.
≥ 20 µM

Kindly indicate its recorded DC50. Item: O=C1CCC(N2Cc3cc(-c4cc5ccccc5c(=O)[nH]4)ccc3C2=O)C(=O)N1 (centres unmarked) [Example 157]
≥ 20 µM

* * *

# TEST_TARGET: Helios (Homo sapiens, UniProt Q96SW2+Q9UKS7)
# Sequence (Q9UKS7 whole entry): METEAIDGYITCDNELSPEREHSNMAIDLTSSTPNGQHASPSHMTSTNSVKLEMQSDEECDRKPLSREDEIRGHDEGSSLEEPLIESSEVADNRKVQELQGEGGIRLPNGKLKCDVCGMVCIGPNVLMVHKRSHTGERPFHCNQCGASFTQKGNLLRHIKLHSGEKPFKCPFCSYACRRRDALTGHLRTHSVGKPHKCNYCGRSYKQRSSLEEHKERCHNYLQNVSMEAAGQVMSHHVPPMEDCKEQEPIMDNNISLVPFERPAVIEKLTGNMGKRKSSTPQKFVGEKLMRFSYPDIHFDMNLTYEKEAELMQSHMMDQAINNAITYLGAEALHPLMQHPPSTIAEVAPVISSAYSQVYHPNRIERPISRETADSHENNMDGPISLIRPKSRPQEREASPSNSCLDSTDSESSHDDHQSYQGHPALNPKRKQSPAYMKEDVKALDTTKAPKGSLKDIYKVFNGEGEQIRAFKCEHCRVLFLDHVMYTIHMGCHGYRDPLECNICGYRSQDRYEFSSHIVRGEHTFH
# Sequence (Q96SW2 whole entry): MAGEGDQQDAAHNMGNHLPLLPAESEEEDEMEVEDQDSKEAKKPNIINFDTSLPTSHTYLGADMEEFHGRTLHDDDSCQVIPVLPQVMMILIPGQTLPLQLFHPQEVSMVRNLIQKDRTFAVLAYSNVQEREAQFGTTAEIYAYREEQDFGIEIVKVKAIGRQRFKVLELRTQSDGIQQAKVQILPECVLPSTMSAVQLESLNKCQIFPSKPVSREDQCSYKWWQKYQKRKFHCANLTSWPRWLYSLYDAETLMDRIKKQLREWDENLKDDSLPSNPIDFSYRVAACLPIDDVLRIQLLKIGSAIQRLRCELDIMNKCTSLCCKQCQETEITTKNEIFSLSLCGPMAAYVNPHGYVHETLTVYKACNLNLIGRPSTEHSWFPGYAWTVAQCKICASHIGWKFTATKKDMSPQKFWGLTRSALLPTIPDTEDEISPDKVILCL
# Sequence (Q16531 whole entry partner): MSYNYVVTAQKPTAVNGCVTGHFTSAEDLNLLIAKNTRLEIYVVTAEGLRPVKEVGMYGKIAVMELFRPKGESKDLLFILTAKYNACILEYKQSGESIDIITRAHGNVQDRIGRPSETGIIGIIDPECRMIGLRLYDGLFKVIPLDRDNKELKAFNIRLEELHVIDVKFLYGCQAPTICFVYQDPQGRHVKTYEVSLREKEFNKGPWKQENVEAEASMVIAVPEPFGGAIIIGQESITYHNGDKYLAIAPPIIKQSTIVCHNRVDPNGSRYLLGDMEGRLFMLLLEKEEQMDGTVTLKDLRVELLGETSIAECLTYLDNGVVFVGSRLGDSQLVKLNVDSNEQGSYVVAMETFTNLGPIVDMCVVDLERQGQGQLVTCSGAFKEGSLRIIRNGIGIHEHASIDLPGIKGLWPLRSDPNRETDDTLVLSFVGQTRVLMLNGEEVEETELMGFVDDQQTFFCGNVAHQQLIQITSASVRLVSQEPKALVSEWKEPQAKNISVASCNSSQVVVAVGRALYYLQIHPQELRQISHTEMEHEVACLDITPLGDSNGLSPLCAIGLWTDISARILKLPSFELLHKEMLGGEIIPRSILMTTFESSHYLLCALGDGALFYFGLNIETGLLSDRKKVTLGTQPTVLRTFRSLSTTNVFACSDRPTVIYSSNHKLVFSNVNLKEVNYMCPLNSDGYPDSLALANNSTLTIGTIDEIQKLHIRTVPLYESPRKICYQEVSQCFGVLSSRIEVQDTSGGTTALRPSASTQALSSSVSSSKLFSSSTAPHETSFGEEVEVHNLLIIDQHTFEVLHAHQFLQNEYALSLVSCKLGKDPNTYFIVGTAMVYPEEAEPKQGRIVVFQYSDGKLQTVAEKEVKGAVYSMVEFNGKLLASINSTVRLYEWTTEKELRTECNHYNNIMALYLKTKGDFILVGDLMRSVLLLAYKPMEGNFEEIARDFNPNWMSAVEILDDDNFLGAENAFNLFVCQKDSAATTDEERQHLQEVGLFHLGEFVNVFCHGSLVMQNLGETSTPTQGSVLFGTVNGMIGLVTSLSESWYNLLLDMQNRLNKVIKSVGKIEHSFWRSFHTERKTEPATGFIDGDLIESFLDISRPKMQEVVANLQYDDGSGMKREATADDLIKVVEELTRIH
# PROCEDURE_DETAILS: Helios Cellular Degradation Assay (Helios readout)
# Format: cell-based
# Design: endogenous in cells; host or cells: Jurkat
# CONDITION_LABEL: Jurkat cells, 72 h incubation, Helios-PE antibody staining, flow cytometry; read-out: Helios Jurkat IC50
Record form. Attribute: DC50. Fill in for each entry.
Kindly answer with a numeric value in nM, unit omitted.

Under Helios (Homo sapiens, UniProt Q96SW2+Q9UKS7), report DC50 for Nc1nccc(-c2ccc3c(c2)CN(C2CCC(=O)NC2=O)C3=O)n1 (stereo not shown)
480

Supply DC50 measured with Helios (Homo sapiens, UniProt Q96SW2+Q9UKS7) for O=C1CCC(N2Cc3cc(-c4ncc(F)c5[nH]ccc45)ccc3C2=O)C(=O)N1 (stereo not shown) .
42

Under Helios (Homo sapiens, UniProt Q96SW2+Q9UKS7): report DC50 of COc1cc2nc(-c3ccc4c(c3)CN(C3CCC(=O)NC3=O)C4=O)nc(N)c2cc1OC (stereo not shown) .
30

* * *

# TEST_TARGET: Helios (Homo sapiens, UniProt Q96SW2+Q9UKS7)
# PROCEDURE_DETAILS: Helios Cellular Degradation Assay (Helios readout)
# Assay type: cell-based
# Parameters: endogenous in cells; host or cells: Jurkat
# CONDITION_LABEL: Jurkat cells, 72 h incubation, Helios-PE antibody staining, flow cytometry; read-out: Helios Jurkat IC50
OBSERVABLE: DC50 (µM)
Numbers only; they are read as µM.

Look up and report measured DC50 (Helios (Homo sapiens, UniProt Q96SW2+Q9UKS7)) for the following molecule: O=C1CCC(N2Cc3cc(-c4cc(C(=O)NC5CC5)c5ccccc5n4)ccc3C2=O)C(=O)N1 (stereo not shown) [Example 14]
0.4

Please report DC50 with Helios (Homo sapiens, UniProt Q96SW2+Q9UKS7) for item O=C1CCC(N2Cc3cc(-c4cnc5cc(Cl)ccc5n4)ccc3C2=O)C(=O)N1 (stereo not shown) [Example 18] .
0.12

Print Helios (Homo sapiens, UniProt Q96SW2+Q9UKS7) DC50 for COc1nc2ccccc2nc1-c1ccc2c(c1)CN(C1CCC(=O)NC1=O)C2=O (stereo not shown) [Example 94] .
1.07

Jot down DC50 (Helios (Homo sapiens, UniProt Q96SW2+Q9UKS7)) of O=C1CCC(N2Cc3cc(-c4cc5c(cn4)CCCC5)ccc3C2=O)C(=O)N1 (stereo not shown) [Example 115] .
0.1

* * *

# TEST_TARGET: Ikaros (Homo sapiens, UniProt Q13422+Q96SW2)
# PROCEDURE_DETAILS: Helios Cellular Degradation Assay (Ikaros readout)
# Format: cell-based
# Design: endogenous in cells; host or cells: Jurkat
# CONDITION_LABEL: Jurkat cells, 72 h incubation, Ikaros-Alexa488 antibody staining, flow cytometry; read-out: Ikaros Jurkat IC50
OBSERVABLE: DC50

Identify measured DC50 corresponding to O=C1CCC(N2Cc3cc(-c4ncc(OCc5ccccc5)c5ccccc45)ccc3C2=O)C(=O)N1 (stereo not shown) [Example 105]
≥ 20 µM

Give recorded DC50. NC(=O)c1ccc(-c2ccc3c(c2)CN(C2CCC(=O)NC2=O)C3=O)nn1 (stereo not shown) [Example 78]
> 20 µM

Input O=C1CCC(N2Cc3cc(-c4cc(-c5ccccc5)c5ccccc5n4)ccc3C2=O)C(=O)N1 (stereo not shown) [Example 13] , output reported DC50.
> 20 µM

Specify DC50 for COc1nc(-c2ccc3c(c2)CN(C2CCC(=O)NC2=O)C3=O)cc2ccccc12 (stereo not shown) [Example 156] and stop.
≥ 20 µM

Using the record for CN(C)C(=O)c1c(-c2ccc3c(c2)CN(C2CCC(=O)NC2=O)C3=O)nc(N)c2ccccc12 (stereo not shown) [Example 130] , state its measured DC50.
≥ 20 µM

Identify DC50 associated with the compound CN(C)c1cnc(-c2ccc3c(c2)CN(C2CCC(=O)NC2=O)C3=O)c2cc(Cl)ccc12 (stereo not shown) [Example 129]
0.09 µM

Quick one: give measured DC50 for NC(=O)c1cnc(-c2ccc3c(c2)CN(C2CCC(=O)NC2=O)C3=O)nc1N (stereo not shown) [Example 81]
> 20 µM

Hello, please tell me recorded DC50 for this one: CC(=O)O[C@H]1CCOc2nc(-c3ccc4c(c3)CN([C@H]3CCC(=O)NC3=O)C4=O)ccc21 [Example 127]
≥ 20 µM

Given the compound COc1cc(N)nc(-c2ccc3c(c2)CN(C2CCC(=O)NC2=O)C3=O)c1 (stereo not shown) [Example 164] , write its reported DC50.
≥ 20 µM

Entry Cc1cc(C#N)c(-c2ccc3c(c2)CN(C2CCC(=O)NC2=O)C3=O)nc1N (stereo not shown) [Example 180] needs its DC50 filled in; supply it.
≥ 10 µM

Report measured DC50; entry is COc1cc2nc(-c3ccc4c(c3)CN(C3CCC(=O)NC3=O)C4=O)nc(N)c2cc1OC (stereo not shown) [Example 16]
> 20 µM

Name the recorded DC50 of the item CC(=O)N(C)c1nc(-c2ccc3c(c2)CN(C2CCC(=O)NC2=O)C3=O)cc2ccccc12 (stereo not shown) [Example 52] in your answer.
> 20 µM

Note down DC50 recorded for Cc1cc(=O)c2ccc(-c3ccc4c(c3)CN(C3CCC(=O)NC3=O)C4=O)nc2o1 (stereo not shown) [Example 62]
> 20 µM

Recall and state the measured DC50 for Nc1ccc2c(-c3ccc4c(c3)CN(C3CCC(=O)NC3=O)C4=O)nccc2c1 (stereo not shown) [Example 133] .
≥ 20 µM

Could you please provide reported DC50 for CCOc1c(-c2ccc3c(c2)CN(C2CCC(=O)NC2=O)C3=O)nc(Cl)c2ccccc12 (stereo not shown) [Example 86] ? Thanks!
0.19 µM

Give me measured DC50, please, for this compound: O=C1CCC(N2Cc3cc(-c4cnc5cc(F)ccc5n4)ccc3C2=O)C(=O)N1 (stereo not shown) [Example 26]
> 20 µM

* * *

# TEST_TARGET: Helios (Homo sapiens, UniProt Q96SW2+Q9UKS7)
# PROCEDURE_DETAILS: Helios Cellular Degradation Assay (Helios readout)
# Assay type: cell-based
# Parameters: endogenous in cells; host or cells: Jurkat
# CONDITION_LABEL: Jurkat cells, 72 h incubation, Helios-PE antibody staining, flow cytometry; read-out: Helios Jurkat IC50
Consider the following compounds; for each one, report its log10(DC50).
// units: nM (pre-log); metric: DC50; scale: log10

Please supply the value of reported log10(DC50) for the item Nc1ccc2cnc(-c3ccc4c(c3)CN(C3CCC(=O)NC3=O)C4=O)cc2c1 (centres unmarked)
0.30

# return recorded log10(DC50) for input `CC(=O)Nc1cc2ccccc2c(-c2ccc3c(c2)CN([C@H]2CCC(=O)NC2=O)C3=O)n1`
1.90

Indicate its recorded log10(DC50); the compound in question is O=C1CCC(N2Cc3cc(-c4ccc5cc(Cl)ccc5n4)ccc3C2=O)C(=O)N1 (centres unmarked)
1.40

Determine from records and report log10(DC50) for O=C1CCC(N2Cc3cc(-c4nccc5ccc(F)cc45)ccc3C2=O)C(=O)N1 (centres unmarked)
1.48

Give log10(DC50) for the following compound: O=C1CCC(N2Cc3cc(-c4nc(O)cc5c(Cl)cccc45)ccc3C2=O)C(=O)N1 (centres unmarked)
1.00

Specify log10(DC50) for O=C1CCC(N2Cc3cc(-c4nccc5ccccc45)ccc3C2=O)C(=O)N1 (centres unmarked) and stop.
0.78

For Nc1nc(-c2ccc3c(c2)CN(C2CCC(=O)NC2=O)C3=O)nc2ccccc12 (centres unmarked) , write its log10(DC50).
0.90

Note log10(DC50) for the compound shown: Nc1nc(-c2ccc3c(c2)CN(C2CCC(=O)NC2=O)C3=O)cc2ccccc12 (centres unmarked)
0.78
